Target: Recombinant human HSD17B13 enzyme (Homo sapiens)
Sequence (Q7Z5P4 20-300): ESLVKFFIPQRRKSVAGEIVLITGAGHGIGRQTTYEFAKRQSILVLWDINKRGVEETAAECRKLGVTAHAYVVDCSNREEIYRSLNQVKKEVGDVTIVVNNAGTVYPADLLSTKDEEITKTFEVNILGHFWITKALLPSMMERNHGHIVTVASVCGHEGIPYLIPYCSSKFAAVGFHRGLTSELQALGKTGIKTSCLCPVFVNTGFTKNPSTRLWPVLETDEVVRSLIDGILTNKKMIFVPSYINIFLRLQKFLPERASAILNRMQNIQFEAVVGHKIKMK
Test: HSD17b13 NAD(P)H-Glo biochemical assay
Conditions: 50 uM estradiol, 1 mM NAD+, NAD(P)H-Glo luminescence; read-out: HSD17β13 IC50
pIC50: −log10 of the molar value.
MEASURED_ENDPOINT: pIC50

>>> result("CC1(C)CCN(c2ccc(N3C(=O)C(C)(C)c4cc(F)c(O)c(F)c43)cc2)CC1")
"4.52 to 6.00"
>>> result("Oc1c(F)cc2cnn(-c3cnc(-c4ccc(Cl)cc4)cn3)c2c1F")
"> 7.00"
>>> result("Oc1c(F)cc2cnn(-c3ccc(C4=CCOCC4)cc3)c2c1F")
"> 7.00"

Problem: Recall and state the measured pIC50 for `CC(C)n1c(=O)n(-c2ccc(N3CCC(C)(C)CC3)cc2)c2c(F)c(O)c(F)cc21` .
Solution: 6.00 to 7.00

Problem: Retrieve pIC50 measured for `CC1(C)CC=C(c2ccc(-n3ncc4cc(F)c(O)c(F)c43)cc2)CC1` and print it.
Solution: > 7.00

Problem: Determine from records and report pIC50 for `CC1(C)CCN(c2ccc(-n3ncc4cc(F)c(O)c(F)c43)cc2)CC1`
Solution: > 7.00
